Assay: growth of efflux-deficient E. coli DRC39 – strain DRC39, OD650, 24 h, E. coli filamentation inducers, primary screen (AID 1178);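 note: growth measured as culture turbidity by optical density at 650 nm; test concentration not given here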
Conditions: E. coli DRC39 acrAB, higher = more signal, called active from +8 up or from −8 down
Measurement type: z-score
Give bare numbers.

Worked examples, 2 compounds total:
CCOC(=O)C=Cc1cccc(OC)c1O: -0.597
O=C1NC(=O)C2C1C=CC(C(O)c1cccs1)N2Nc1ccccn1 (stereo not drawn): -0.0795

// next item, z-score requested
# input compound: CCOC(=O)C[C@H]1[C@H](OC(=O)c2ccccc2-c2ccccc2)[C@@H](NC(=O)c2ccc(-c3ccccc3)cc2)c2cc(OCCCO)ccc2N1C(=O)c1ccccc1 ; wanted: its z-score
1.39
